Measured values drawn from PubChem BioAssay (NCI) for this set.

Collected log10 of TGI values appear next to each entry.
System: NCI-H23 lung
Method Notes: NCI tumour cell line growth inhibition, 48 h
Recorded Endpoint: log10 of TGI (log10 of the value in µM)

>>> result_value("CC1NOC(=O)C1N=Nc1ccccc1Br (stereo unspecified)")
1.69
>>> result_value("CCn1nc(-c2ccc(C(=O)OC)cc2)nc2c(=O)n(C)c(=O)nc1-2")
0.50
>>> result_value("CCCC(=O)OCC1OC(n2cnc3c(=S)nc(N)[nH]c32)C(OC(=O)CCC)C1OC(=O)CCC (stereo unspecified)")
1.52
>>> result_value("COc1ccc(OC)c(/C=C/C(=O)N/N=C/c2ccccc2)c1")
1.94
>>> result_value("O=S(=O)(SCCCCSS(=O)(=O)c1ccc(Cl)cc1)c1ccc(Cl)cc1")
1.36
>>> result_value("COc1cccc(/C=C2\\COc3ccc(O)c(O)c3C2=O)c1")
0.52
>>> result_value("ClC(Cl)c1nc(-c2ccccc2)n2nc(-c3ccccc3)cc2n1")
0.61
>>> result_value("Cc1ccc(NCCN(C)C)c2c(=O)c3cc(O)ccc3oc12")
1.41
>>> result_value("CC1=NN(c2cccc(Cl)c2)C2(C1=Cc1ccccc1)C(Cl)C(=O)N2c1nc2ccccc2s1 (stereo unspecified)")
1.50

###

System: KM12 colon
Method Notes: NCI tumour cell line growth inhibition, 48 h; in the data active means GI50 below about 0.43 µM; inactive means the rest
Possible outcomes: YES = active, NO = inactive

>>> discrete_label("COc1ccc(OC)c(/C=C/C(=O)N/N=C/c2ccccc2)c1")
"NO"
>>> discrete_label("C=C1C(=O)O[C@@H]2[C@@H]3O[C@@H](C[C@@H]13)[C@](C)(O)CC/C=C(\\C)CCC[C@H]2C")
"NO"
>>> discrete_label("Nc1cc(N)c2nc(-c3ccccc3)c(NCCc3ccc(Cl)c(Cl)c3)nc2c1")
"NO"
>>> discrete_label("C=CC(C)c1cccc(C=O)c1O (centres undefined)")
"NO"
>>> discrete_label("C/C=C/C1=CN2C(=O)c3cc(OC4OC(C)C(NC)C(C)(O)C4O)c(C)cc3N=C[C@@H]2C1 (some centres undefined)")
"YES"
>>> discrete_label("COc1ccc(-c2nc3c(-c4ccccc4)nc(-c4ccccc4)cn3c2-c2ccc(OC)cc2)cc1")
"NO"
>>> discrete_label("NCCNC1=CC(=O)c2nc3ccccc3c3ccnc1c23")
"NO"
>>> discrete_label("COc1cc(-c2nn(-c3ccc(NC(=O)NCCNS(=O)(=O)c4ccc(F)cc4)cc3)cc2-c2ccncc2)ccc1Cl")
"YES"
>>> discrete_label("O=C(Nc1ccc(F)cc1F)c1cc(F)ccc1O")
"NO"
>>> discrete_label("O=C1OCC(C#Cc2ccccc2)=C1Br")
"NO"
>>> discrete_label("Cc1ccc(C2C3Cc4ccccc4C3=NN2c2ccc(S(=O)(=O)NC(=O)NC3CCCCC3)cc2)cc1 (centres undefined)")
"NO"
>>> discrete_label("COC(=O)c1c(C)c2n(c1C)C(=O)C(c1ccccc1)=C2")
"NO"
>>> discrete_label("COc1ccc(/C=C/C(=O)c2ccc(Cl)cc2Cl)cc1")
"NO"
>>> discrete_label("CCOC(=O)CCC(NC(=O)c1ccc(Sc2nc3cc(N)cc(N)c3nc2-c2ccccc2)cc1)C(=O)OCC (centres undefined)")
"NO"

###

Tested on: HCT-116 colon
Method Notes: NCI tumour cell line growth inhibition, 48 h
Recorded Endpoint: TGI

>>> result_value("COc1nc2c(nc(N)n2C2OC(CO)C(O)C(O)C2O)c(=O)[nH]1 (centres undefined)")
"> 100 µM"
>>> result_value("CCn1nc(-c2ccc(C(=O)OC)cc2)nc2c(=O)n(C)c(=O)nc1-2")
"1.01 µM"
>>> result_value("Nc1nc2c(c(=O)[nH]1)CN(CCCN1CCOCC1)CN2")
"> 100 µM"
>>> result_value("O=C1OCC(C#Cc2ccccc2)=C1Br")
"> 31.6 µM"
>>> result_value("CC1(C)S[C@H](c2ccccc2C(=O)O)N[C@@H]1CC(=O)O")
"> 100 µM"
>>> result_value("O=C(O)CNCP(=O)(O)O")
"> 100 µM"
>>> result_value("O=C1CCC/C=C\\C[C@H]2C=CC(=O)/C2=C/C[C@H](CCc2cccc(C(F)(F)F)c2)O1")
"1.48 µM"
>>> result_value("Cn1c(=O)nc2n(-c3cccc(Cl)c3)c3ccccc3nc-2c1=O")
"30.8 µM"
>>> result_value("COc1ccccc1/C=C1\\C(=O)N(C(=O)c2ccc(NC(C)=O)cc2)N=C1C")
"> 100 µM"
>>> result_value("CC1(C)Cc2c(c3ccccc3c3nc4c(nc23)c2c(c3ccccc34)OC(C)(C)C2)O1")
"> 100 µM"
>>> result_value("CC1=C(Cc2ccccc2)C(Cc2ccccc2)=C(C)S1=O")
"74.7 µM"
>>> result_value("O=C(c1cccc(F)c1F)N1CCc2c([nH]c3ccccc23)C1c1ccc2c(c1)OCO2 (centres undefined)")
"> 100 µM"
>>> result_value("Cc1ccc(C2C3Cc4ccccc4C3=NN2c2ccc(S(=O)(=O)NC(=O)NC3CCCCC3)cc2)cc1 (centres undefined)")
"> 100 µM"
>>> result_value("CN(C)CCCNC(=O)c1cccc2ccccc12")
"> 100 µM"
>>> result_value("O=c1[nH]ccc2c1ccn2C1CC(O)C(CO)O1 (centres undefined)")
"> 100 µM"
>>> result_value("CC(C)CC(NC(=O)C(Cc1ccccc1)NC(=O)[C@H]1CC[C@H](NC(=O)C(Cc2ccc(OC(C)(C)C)cc2)NC(=O)OC(C)(C)C)C1)C(N)=O (some centres undefined)")
"28.2 µM"
>>> result_value("Cc1cc(C)c([S@@](=O)O[C@@H]2[C@H]3OC(C)(C)O[C@H]3O[C@@H]2[C@H]2COC(C)(C)O2)c(C)c1")
"57 µM"
>>> result_value("O=C(NC1C(O)C(O)C(CO)OC1n1cc(F)c(=O)[nH]c1=O)OCc1ccccc1 (centres undefined)")
"> 100 µM"
>>> result_value("O=C1CCc2c(Oc3ccc4c(c3)[C@H]3[C@@H](O4)[C@@H]3c3nc4ccc(C(F)(F)F)cc4[nH]3)ccnc2N1")
"> 100 µM"
